test-description: Toxicity liver stage against HepG2, at 10uM
Type: cell-based
Design: test concentration 10 uM, cell line HepG2-A16-CD81EGFP
applied-conditions: human, HepG2-A16-CD81EGFP cells; read-out: INHIBITION
Item-by-item account of cytotoxicity at 10 µM
// units = %; emit number, no label

Reference set (5 entries):
Task item: Query (compound): CNC(=O)C(C)(C)NC(=O)c1cc(OCC2CCC2)cc(C(=O)OC)c1 ; field requested: cytotoxicity at 10 µM
Reply: -8.97

Task item: Query (compound): CNC(=O)[C@H]1C[C@@H]2CN(Cc3csc(C)n3)C[C@@H]2N1S(C)(=O)=O ; field requested: cytotoxicity at 10 µM
Reply: -3.78

Task item: Query (compound): O=C(NC1CCCC1)c1ccc(C2CCCNC2)nc1 (stereo unspecified) ; field requested: cytotoxicity at 10 µM
Reply: -13.7

Task item: Query (compound): CN(C)Cc1nc(C(=O)N2CCCC(COc3ccc(F)cc3)C2)cs1 (stereo unspecified) ; field requested: cytotoxicity at 10 µM
Reply: -6.09

Task item: Query (compound): COC(=O)[C@H]1C[C@@H](O)CCN1S(=O)(=O)c1cc(C)c(Cl)cc1C ; field requested: cytotoxicity at 10 µM
Reply: -0.566

New cases:
Task item: Query (compound): O=C(NCCC1CCN(CC(F)(F)F)CC1)C1CCCO1 (stereo unspecified) ; field requested: cytotoxicity at 10 µM
Reply: 5.48

Task item: Query (compound): NCCc1cc(N2CCOCC2)nc(NC2CC2)n1 ; field requested: cytotoxicity at 10 µM
Reply: 0.881

====

test-description: Toxicity liver stage against HepG2, at 10uM
Type: cell-based
Parameters: test concentration 10 uM, cell line HepG2-A16-CD81EGFP
applied-conditions: human, HepG2-A16-CD81EGFP cells; read-out: INHIBITION
property-label: cytotoxicity at 10 µM (%)
// units = %; emit number, no label

Reference set (6 entries):
Task item: Query (molecule): NC1CCCN(C(=O)c2csc(-c3ccc(C(F)(F)F)cc3)n2)CC1 (configuration not stated) ; field requested: cytotoxicity at 10 µM
Reply: -15.1

Task item: Query (molecule): CC(NC(=O)C1CCN(C(=O)C2CC2)CC1)c1nncn1C(C)C (configuration not stated) ; field requested: cytotoxicity at 10 µM
Reply: 1.33

Task item: Query (molecule): CC1(CCC(=O)N2CCC(n3cc(C4(O)CCCC4)nn3)CC2)CC1 ; field requested: cytotoxicity at 10 µM
Reply: -7.69

Task item: Query (molecule): O=C(NCC(=O)N1CCC2(CC1)OCCO2)c1ccoc1 ; field requested: cytotoxicity at 10 µM
Reply: -9.55

Task item: Query (molecule): COc1cc(N(C)Cc2cccc(-n3cccn3)c2)nc(N)n1 ; field requested: cytotoxicity at 10 µM
Reply: 49.1

Task item: Query (molecule): O=C(NCCN1CCCC(CO)C1)c1ccc2sccc2c1 (configuration not stated) ; field requested: cytotoxicity at 10 µM
Reply: -5.35

New cases:
Task item: Query (molecule): O=C(CCc1ccsc1)NCC1CCN(Cc2cccs2)CC1 ; field requested: cytotoxicity at 10 µM
Reply: 12.9

Task item: Query (molecule): Cc1nc2c(NCC(C)N(C)c3ccccc3)ncnc2o1 (configuration not stated) ; field requested: cytotoxicity at 10 µM
Reply: 4.73

Task item: Query (molecule): CS(=O)(=O)CCSC1CCN(c2ccccc2F)C1=O (configuration not stated) ; field requested: cytotoxicity at 10 µM
Reply: -7.68

Task item: Query (molecule): CC(C)N(Cc1ccc(C#N)cc1)C(=O)Nc1ccncc1 ; field requested: cytotoxicity at 10 µM
Reply: 3.9

Task item: Query (molecule): CCC(C)N(CC)C(=O)c1ccc2[nH]nnc2c1 (configuration not stated) ; field requested: cytotoxicity at 10 µM
Reply: 10.5

Task item: Query (molecule): O=C(Cc1cccc(F)c1)NC1CCCc2cn[nH]c21 (configuration not stated) ; field requested: cytotoxicity at 10 µM
Reply: 16.5

====

test-description: Toxicity liver stage against HepG2, at 10uM
Assay type: cell-based
Set-up: test concentration 10 uM, cell line HepG2-A16-CD81EGFP
applied-conditions: human, HepG2-A16-CD81EGFP cells; read-out: INHIBITION
cytotoxicity at 10 µM vs -10%: less than gives true (1); not less than gives false (0).

Some solved cases for reference:
Task item: Is cytotoxicity at 10 µM strictly under -10% for the entry Cn1cc(CCC(=O)N2C[C@@H]3CC[C@H]2CN(Cc2cccnc2)C3)cn1 ?
Reply: true (1)

Task item: Is cytotoxicity at 10 µM strictly under -10% for the entry Cc1cc(NC(=O)NCCC(=O)N2CCCc3ccccc32)no1 ?
Reply: false (0)

Task item: Is cytotoxicity at 10 µM strictly under -10% for the entry CCOCC(=O)N1C[C@H]2CN(CC3CC3)C(=O)[C@H]2C1 ?
Reply: false (0)

Task item: Is cytotoxicity at 10 µM strictly under -10% for the entry COc1ccc(NC2(C(=O)N3CCCn4cncc4C3)CCCC2)cc1 ?
Reply: false (0)

Task item: Is cytotoxicity at 10 µM strictly under -10% for the entry Cc1n[nH]c(C)c1Sc1ccccc1NC(=O)N1CCN(C)CC1 ?
Reply: true (1)

# next compound below
Task item: Is cytotoxicity at 10 µM strictly under -10% for the entry COc1ccc(CN2CCCn3nnc(COCC4CC4)c3C2)cc1 ?
Reply: true (1)

====

Item-by-item account of cytotoxicity at 10 µM
test-description: Toxicity liver stage against HepG2, at 10uM
Type: cell-based
Design: test concentration 10 uM, cell line HepG2-A16-CD81EGFP
applied-conditions: human, HepG2-A16-CD81EGFP cells; read-out: INHIBITION
// units = %; emit number, no label

Task item: Query (compound): CC(C)c1ccc(C(=O)N2CCOCC2CC(=O)c2ccco2)cn1 (stereo unspecified) ; field requested: cytotoxicity at 10 µM
Reply: 6.93

====

test-description: Toxicity liver stage against HepG2, at 10uM
Assay type: cell-based
Set-up: test concentration 10 uM, cell line HepG2-A16-CD81EGFP
applied-conditions: human, HepG2-A16-CD81EGFP cells; read-out: INHIBITION
property-label: cytotoxicity at 10 µM (%)
// units = %; emit number, no label

Task item: Query (molecule): Cc1ccc(CN2CC[C@@H](NS(C)(=O)=O)[C@@H]2Cc2ccncc2)o1 ; field requested: cytotoxicity at 10 µM
Reply: -3.18

Task item: Query (molecule): CCN(Cc1ccc2c(c1)OCO2)C(=O)NC(C)Cn1ccnc1 (stereo unspecified) ; field requested: cytotoxicity at 10 µM
Reply: -13.2

Task item: Query (molecule): Cc1ccc(C(=O)O)cc1CNC(=O)CN1CC[C@](C)(O)C(C)(C)C1 ; field requested: cytotoxicity at 10 µM
Reply: -4.18

Task item: Query (molecule): Cc1ccc(CN2CC[C@H](O)[C@@H](n3ccc(=O)[nH]c3=O)CC2)cc1 ; field requested: cytotoxicity at 10 µM
Reply: -22.8

Task item: Query (molecule): CC(C)Cn1cnc(S(=O)(=O)NCCc2nnc3ccccn23)c1 ; field requested: cytotoxicity at 10 µM
Reply: 6.48

New cases:
Task item: Query (molecule): COc1ccc(CNCc2cc(Br)c3c(c2)OCO3)cc1 ; field requested: cytotoxicity at 10 µM
Reply: 12.1

Task item: Query (molecule): NC(=O)CCCNC(=O)Cc1csc(Cc2ccccn2)n1 ; field requested: cytotoxicity at 10 µM
Reply: -4.56

Task item: Query (molecule): CN(C)Cc1nnc(C2CCCN(c3ncccc3F)C2)n1C (stereo unspecified) ; field requested: cytotoxicity at 10 µM
Reply: 7.36

Task item: Query (molecule): Cc1cc(C2CCCN2C(=O)c2cc3c(s2)CCC3)no1 (stereo unspecified) ; field requested: cytotoxicity at 10 µM
Reply: -11

Task item: Query (molecule): CC(C)c1nc2n(n1)CC(Nc1ncnc3ccccc13)CC2 (stereo unspecified) ; field requested: cytotoxicity at 10 µM
Reply: -0.95

Task item: Query (molecule): Cn1nccc1CN1CCOC(c2cccc(-c3cncnc3)n2)C1 (stereo unspecified) ; field requested: cytotoxicity at 10 µM
Reply: 0.88

====

test-description: Toxicity liver stage against HepG2, at 10uM
Type: cell-based
Parameters: test concentration 10 uM, cell line HepG2-A16-CD81EGFP
applied-conditions: human, HepG2-A16-CD81EGFP cells; read-out: INHIBITION
Item-by-item account of cytotoxicity at 10 µM
// units = %; emit number, no label

Reference set (4 entries):
Task item: Query (molecule): CC1(C(=O)NC2CCCC2)CN(c2cnccn2)CCO1 (configuration not stated) ; field requested: cytotoxicity at 10 µM
Reply: -33.9

Task item: Query (molecule): O=C(COc1ccc2c(c1)CCC2)NS(=O)(=O)c1cccnc1 ; field requested: cytotoxicity at 10 µM
Reply: -4.63

Task item: Query (molecule): C[C@@H]1CN(C2CCN(c3ccccc3F)CC2)C[C@]1(C)O ; field requested: cytotoxicity at 10 µM
Reply: -2.19

Task item: Query (molecule): Cc1ccc(CC(=O)N2CCCC(c3nccs3)C2)cn1 (configuration not stated) ; field requested: cytotoxicity at 10 µM
Reply: -2.01

New cases:
Task item: Query (molecule): CCS(=O)(=O)N1CCc2cc(C(=O)N(C)C)c(NCC3CC3)nc2CC1 ; field requested: cytotoxicity at 10 µM
Reply: 0.0623

Task item: Query (molecule): O=C(NCCn1cnnc1C1CC1)c1c(O)cc(F)cc1F ; field requested: cytotoxicity at 10 µM
Reply: -1.88
